# Tested Target: T1, 4H464-AA
# T1 chain: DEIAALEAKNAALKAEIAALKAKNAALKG
# Experiment Summary: two-hybrid library CCmax;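 note: natural log of median RNA to DNA barcode read ratio; higher means stronger binding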
# Test Conditions: mean of both orientations
Listed below: interaction score values for each entry.

{"Binder": "DKNAALKAEIAALEAKIAALKAKIAALEG [4H3629-AA]", "interaction score": -1.75}
{"Binder": "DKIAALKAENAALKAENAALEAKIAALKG [4H2774-AA]", "interaction score": -1.18}
{"Binder": "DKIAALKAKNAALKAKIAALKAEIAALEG [4H3049-AA]", "interaction score": 0.452}
{"Binder": "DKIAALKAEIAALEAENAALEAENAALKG [4H2580-AA]", "interaction score": -0.738}
{"Binder": "DENAALEAKIAALKAEIAALKAKNAALKG [4H1360-AA]", "interaction score": -1.69}
{"Binder": "DKIAALKAKIAALKAENAALEAKNAALEG [4H2903-AA]", "interaction score": -1.44}
{"Binder": "DKIAALKAKNAALEAENAALEAEIAALEG [4H2961-AA]", "interaction score": -0.618}

Where do these numbers come from? They come from paper PMC10397247.
